biological target: ΔF508-CFTR (Homo sapiens, UniProt P13569, DEL508-508); test: Membrane potential optical (FRET/VIPR) assay, identification of potentiator compounds; conditions: Table 3; assay not given
Sequence (P13569 with tags, fused parts or gaps DEL508-508): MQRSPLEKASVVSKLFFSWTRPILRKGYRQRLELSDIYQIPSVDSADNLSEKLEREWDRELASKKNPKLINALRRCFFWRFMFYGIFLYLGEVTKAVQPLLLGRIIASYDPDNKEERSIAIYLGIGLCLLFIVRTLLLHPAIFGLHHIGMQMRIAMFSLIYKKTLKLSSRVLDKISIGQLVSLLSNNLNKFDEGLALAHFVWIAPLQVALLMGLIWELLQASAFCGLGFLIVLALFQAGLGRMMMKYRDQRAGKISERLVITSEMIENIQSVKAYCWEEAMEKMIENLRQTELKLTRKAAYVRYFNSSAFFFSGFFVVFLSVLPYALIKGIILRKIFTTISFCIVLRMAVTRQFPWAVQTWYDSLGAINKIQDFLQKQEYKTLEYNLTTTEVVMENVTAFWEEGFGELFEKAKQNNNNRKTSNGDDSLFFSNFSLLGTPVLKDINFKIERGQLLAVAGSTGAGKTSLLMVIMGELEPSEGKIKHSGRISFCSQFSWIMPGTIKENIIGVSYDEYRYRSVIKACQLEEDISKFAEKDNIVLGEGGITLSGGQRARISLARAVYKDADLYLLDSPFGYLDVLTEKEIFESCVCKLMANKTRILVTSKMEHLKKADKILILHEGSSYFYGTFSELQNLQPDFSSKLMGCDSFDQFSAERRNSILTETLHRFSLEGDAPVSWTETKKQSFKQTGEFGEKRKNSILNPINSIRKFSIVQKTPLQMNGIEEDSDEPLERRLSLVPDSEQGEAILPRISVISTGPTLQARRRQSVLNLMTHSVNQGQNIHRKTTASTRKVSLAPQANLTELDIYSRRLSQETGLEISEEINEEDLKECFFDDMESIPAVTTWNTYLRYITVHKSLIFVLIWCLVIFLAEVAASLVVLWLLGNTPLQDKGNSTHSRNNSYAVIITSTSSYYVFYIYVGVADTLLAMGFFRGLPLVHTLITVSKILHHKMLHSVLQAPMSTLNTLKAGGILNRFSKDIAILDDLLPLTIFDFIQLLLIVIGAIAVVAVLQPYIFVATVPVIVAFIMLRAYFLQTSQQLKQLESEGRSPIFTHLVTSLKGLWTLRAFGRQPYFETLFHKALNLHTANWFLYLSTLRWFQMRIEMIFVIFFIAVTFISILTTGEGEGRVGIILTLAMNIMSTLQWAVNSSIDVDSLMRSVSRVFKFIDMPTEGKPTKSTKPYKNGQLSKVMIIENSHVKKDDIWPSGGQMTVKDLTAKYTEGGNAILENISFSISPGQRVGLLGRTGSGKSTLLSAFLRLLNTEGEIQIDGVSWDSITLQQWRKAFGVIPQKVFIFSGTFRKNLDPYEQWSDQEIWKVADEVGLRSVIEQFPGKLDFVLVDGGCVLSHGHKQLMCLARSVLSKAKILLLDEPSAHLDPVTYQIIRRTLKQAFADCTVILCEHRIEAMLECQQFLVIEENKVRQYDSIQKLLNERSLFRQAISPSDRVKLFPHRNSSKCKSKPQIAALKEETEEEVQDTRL
Text: […]
pEC50: −log10 of the molar value.
Readings of pEC50 for the listed compounds

- O=C(Nc1ccc2cc[nH]c2c1)c1c(C(F)(F)F)[nH]c2ccccc2c1=O [Compound 184]: 4.22 to 4.60

query: Could you share which pEC50 value was measured for O=C(Nc1cnc2ccccc2c1)c1c[nH]c2ccccc2c1=O [Compound 75] ?
result: 4.22 to 4.60

query: Fill blank: measured pEC50 of the compound CC(C)(C)c1cc(C(C)(C)C)c(NC(=O)c2c[nH]c3c(F)ccc(F)c3c2=O)cc1O [Compound 718] is ____.
result: > 5.00

---

molecular target: ΔF508-CFTR (Homo sapiens, UniProt P13569, DEL508-508); construct: expressed in transfected cells; test: Membrane potential optical (FRET/VIPR) assay, identification of potentiator compounds; assay type: cell-based; settings: Table 3; assay not given
Source text: […]
pEC50: −log10 of the molar value.
quantityKind: pEC50

Observe how each entry below is paired with its result.
- O=C(Nc1cccc(Oc2ccccc2)c1)c1c[nH]c2ccccc2c1=O: > 5.00
- O=C(Nc1cccc(S(=O)(=O)N2CCOCC2)c1)c1c[nH]c2ccccc2c1=O: 4.22 to 4.60
- O=C(Nc1ccc2[nH]ncc2c1)c1c[nH]c2ccccc2c1=O: 4.60 to 5.00
- CCOCCc1c[nH]c2cc(NC(=O)c3c[nH]c4ccccc4c3=O)ccc12: > 5.00
- CC(C)(C)c1ccc(NC(=O)c2c[nH]c3ccccc3c2=O)cc1OCCO: > 5.00
- CC(C)(C)c1cc(Cl)c(O)cc1NC(=O)c1c[nH]c2ccccc2c1=O: > 5.00
- CC(C)(C)c1cc(C(C)(C)C)c(NC(=O)c2c[nH]c3cccc(C(F)(F)F)c3c2=O)cc1O: > 5.00
- CC(C)(C)c1cc(C(C)(C)C)c(NC(=O)c2c[nH]c3cccc(O)c3c2=O)cc1O: > 5.00
- CC(C)(C)c1cccc(NC(=O)c2c[nH]c3ccc(F)cc3c2=O)c1: > 5.00
- O=C(c1ccccc1)c1ccccc1NC(=O)c1c[nH]c2ccccc2c1=O: 4.60 to 5.00

query: # query: pEC50 of entry "Nc1cc(NC(=O)c2c[nH]c3ccccc3c2=O)cc(C(F)(F)F)c1"
result: > 5.00

query: Fill blank: measured pEC50 of the compound CCC1(c2ccc(NC(=O)c3c[nH]c4ccccc4c3=O)cc2)CCC(=O)NC1=O (stereo not drawn) is ____.
result: 4.60 to 5.00

query: Look at this compound and give its reported pEC50. "CN(C)c1cccc(NC(=O)c2c[nH]c3ccccc3c2=O)c1"
result: 4.60 to 5.00

query: Please give the measured pEC50 for this compound: "O=C(Nc1ccccc1-c1ccc(F)c(F)c1)c1c[nH]c2ccccc2c1=O"
result: > 5.00

---

biological target: ΔF508-CFTR (Homo sapiens, UniProt P13569, DEL508-508); experiment: Membrane potential optical (FRET/VIPR) assay, identification of potentiator compounds; details: Table 3; assay not given
From the text: […]
pEC50: −log10 of the molar value.
Each record here notes measured pEC50.

Some compounds with recorded pEC50:
- O=C(Nc1ccccc1-c1cccc(F)c1F)c1c[nH]c2ccccc2c1=O [Compound 285]: > 5.00
- Cc1ccc(NC(=O)c2c[nH]c3ccccc3c2=O)c(F)c1 [Compound 289]: > 5.00
- COc1ccc2c(=O)c(C(=O)Nc3cc(O)c(C(C)(C)C)cc3C(C)(C)C)c[nH]c2c1 [Compound 583]: > 5.00
- O=C(Nc1ccc(C2CCCCC2)c(O)c1)c1c[nH]c2ccccc2c1=O [Compound 564]: > 5.00
- C[C@@H]1CCCN1c1ccc(NC(=O)c2c[nH]c3ccc(F)cc3c2=O)c(C(F)(F)F)c1 [Compound 684]: > 5.00
- Cc1cccc2[nH]cc(C(=O)Nc3cc4[nH]ccc4cc3C(F)(F)F)c(=O)c12 [Compound 661]: > 5.00

query: Look up pEC50 with ΔF508-CFTR (Homo sapiens, UniProt P13569, DEL508-508) for this compound: Cc1ccc2c(=O)c(C(=O)Nc3cc(O)c(C4(C)CCCCC4)cc3F)c[nH]c2c1 [Compound 499]
result: > 5.00

query: # value lookup — system ΔF508-CFTR (Homo sapiens, UniProt P13569, DEL508-508), readout pEC50, item N#Cc1cccc(NC(=O)c2c[nH]c3ccccc3c2=O)c1 [Compound 447]
result: 4.60 to 5.00

query: Param readout = pEC50; param system = ΔF508-CFTR (Homo sapiens, UniProt P13569, DEL508-508); param query = CC(C)(C)c1c[nH]c2cc(NC(=O)c3c[nH]c4ccc(F)cc4c3=O)ccc12 [Compound 554] ; response: value
result: > 5.00

query: Which pEC50 is reported with ΔF508-CFTR (Homo sapiens, UniProt P13569, DEL508-508) for this entry: CC(C)(C)OC(=O)[C@H]1CCCN1c1ccc(NC(=O)c2c[nH]c3ccccc3c2=O)c(C(F)(F)F)c1 [Compound 540] ?
result: > 5.00

query: API: value(readout= pEC50, system= ΔF508-CFTR (Homo sapiens, UniProt P13569, DEL508-508), query= Cc1cccc2[nH]cc(C(=O)Nc3ccc(N4CCC(C)C4)cc3C(F)(F)F)c(=O)c12 (stereo not shown) [Compound 546] )
result: > 5.00

query: Form: Entry = CC(C)(C)c1cc(F)c(NC(=O)c2c[nH]c3c(C#N)cccc3c2=O)cc1O [Compound 519] | System = ΔF508-CFTR (Homo sapiens, UniProt P13569, DEL508-508) | pEC50 = ____
result: > 5.00

query: Write down the reported pEC50 of O=C(Nc1ccc(F)cc1)c1c[nH]c2ccccc2c1=O [Compound 198] , test system: ΔF508-CFTR (Homo sapiens, UniProt P13569, DEL508-508).
result: > 5.00

query: What measured pEC50 is associated with CCCc1ccc(N(C)C)cc1NC(=O)c1c[nH]c2ccccc2c1=O [Compound 98] on ΔF508-CFTR (Homo sapiens, UniProt P13569, DEL508-508)?
result: > 5.00

query: Form entry - test system: ΔF508-CFTR (Homo sapiens, UniProt P13569, DEL508-508); read-out: pEC50; compound: Cc1ccccc1-c1nc2cc(NC(=O)c3c[nH]c4ccccc4c3=O)ccc2o1 [Compound 329]
result: 4.60 to 5.00

query: Any idea what pEC50 came out for CS(=O)(=O)c1ccc(-c2ccccc2NC(=O)c2c[nH]c3ccccc3c2=O)cc1 [Compound 326] on ΔF508-CFTR (Homo sapiens, UniProt P13569, DEL508-508)?
result: 4.60 to 5.00

query: Which pEC50 is reported with ΔF508-CFTR (Homo sapiens, UniProt P13569, DEL508-508) for this entry: CC(C)(C)c1cc(C(C)(C)C)c(NC(=O)c2c[nH]c3c(Cl)cccc3c2=O)cc1O [Compound 663] ?
result: > 5.00

query: Give pEC50 (ΔF508-CFTR (Homo sapiens, UniProt P13569, DEL508-508)) of the following compound: Cc1ccc2[nH]cc(C(=O)Nc3cc(O)c(C4(C)CCCCC4)cc3F)c(=O)c2c1 [Compound 624]
result: > 5.00

query: Requested read-out pEC50, target or system ΔF508-CFTR (Homo sapiens, UniProt P13569, DEL508-508), entry CC(C)c1cc(C(F)(F)F)c(NC(=O)c2c[nH]c3ccccc3c2=O)cc1O [Compound 497]
result: > 5.00

---

molecular target: ΔF508-CFTR (Homo sapiens, UniProt P13569, DEL508-508); experiment: Membrane potential optical (FRET/VIPR) assay, identification of potentiator compounds; details: Table 3; assay not given
quantityKind: EC50

Before answering, review these 5 worked examples.
* COc1cc(NC(=O)c2c[nH]c3cccc(O)c3c2=O)cc(C(F)(F)F)c1 [Compound 502] | < 10 µM
* O=C(Nc1ccccc1-c1cc(Cl)ccc1Cl)c1c[nH]c2ccccc2c1=O [Compound 213] | < 10 µM
* Cn1cc(C(=O)Nc2ccccc2)c(=O)c2ccccc21 [Compound 468] | 25 to 60 µM
* O=C(Nc1cccc2c1CCC2)c1c[nH]c2ccccc2c1=O [Compound 373] | < 10 µM
* O=C1CSc2ccc(NC(=O)c3c[nH]c4ccccc4c3=O)cc2N1 [Compound 262] | < 10 µM

query: Name the recorded EC50 for Cc1ccc(NC(=O)c2c[nH]c3ccccc3c2=O)cc1C [Compound 246] .
result: < 10 µM

query: Which EC50 reading was recorded for the compound COc1cc2c(=O)c(C(=O)Nc3cc4[nH]ccc4cc3C(C)(C)C)c[nH]c2cc1F [Compound 611] ?
result: < 10 µM

query: Please look up its EC50: O=C(Nc1ccc(C(F)(F)F)cc1Cl)c1c[nH]c2ccc(F)cc2c1=O [Compound 636]
result: < 10 µM

query: Which measured EC50 value corresponds to O=C(Nc1cccnc1)c1c[nH]c2ccccc2c1=O [Compound 168] ?
result: 25 to 60 µM

query: Suppose we examine the compound CC(C)n1cc(C(=O)Nc2ccccc2C(C)(C)C)c(=O)c2ccccc21 [Compound 473] ; what EC50 value has been reported?
result: 10 to 25 µM

query: Look up EC50: O=C(Nc1ccccc1-c1ccc(F)cc1)c1c[nH]c2ccccc2c1=O [Compound 182]
result: < 10 µM

query: Query (compound): O=C(Nc1cc(N2CCCCC2)cc(C(F)(F)F)c1)c1c[nH]c2ccccc2c1=O [Compound 488] ; field requested: EC50
result: < 10 µM

query: Name the recorded EC50 for COc1ccc(NC(=O)c2c[nH]c3ccccc3c2=O)cc1OC [Compound 122] .
result: 25 to 60 µM

query: # query: EC50 of entry CC(C)c1ccc(NC(=O)c2c[nH]c3ccc(F)cc3c2=O)c(C(F)(F)F)c1 [Compound 557]
result: < 10 µM

query: What does the record list as EC50 for COc1ccc2[nH]cc(C(=O)Nc3cc(O)c(C4(C)CCCCC4)cc3F)c(=O)c2c1 [Compound 584] ?
result: < 10 µM

query: Find the recorded EC50 belonging to CCn1cc(C(=O)Nc2ccccc2)c(=O)c2cc(OC)ccc21 [Compound 480] and report it.
result: 25 to 60 µM

query: Request the reported EC50 associated with O=C(Nc1c(Cl)cccc1Cl)c1c[nH]c2ccccc2c1=O [Compound 317]
result: < 10 µM

query: Any idea what EC50 was measured for O=C(Nc1ccccc1Cl)c1c[nH]c2ccccc2c1=O [Compound 330] ?
result: < 10 µM

query: # query: EC50 of entry COc1cccc(OC)c1-c1cc2cc[nH]c2cc1NC(=O)c1c[nH]c2ccccc2c1=O [Compound 404]
result: < 10 µM

query: Give its EC50 value. Item: CC(C)c1ccc(NC(=O)c2c[nH]c3cc(F)c(F)cc3c2=O)c(C(F)(F)F)c1 [Compound 589]
result: < 10 µM

query: Report EC50 for CC(C)(C)c1cc(F)c(NC(=O)c2c[nH]c3cccc(O)c3c2=O)cc1O [Compound 407] please.
result: < 10 µM

query: Which EC50 is reported for this compound? COc1ccc2c(=O)c(C(=O)Nc3ccc(N4CCC[C@@H]4C)cc3C(F)(F)F)c[nH]c2c1 [Compound 642]
result: < 10 µM

query: Give its EC50 value. Item: O=C(Nc1cc2[nH]ccc2cc1F)c1c[nH]c2ccccc2c1=O [Compound 77]
result: < 10 µM

query: Give its EC50 value. Item: O=C(Nc1cccc2cccnc12)c1c[nH]c2ccccc2c1=O [Compound 241]
result: 10 to 25 µM

query: I would be grateful if you could share the reported EC50 for C=Cc1ccc(NC(=O)c2c[nH]c3ccccc3c2=O)cc1 [Compound 452] .
result: < 10 µM
